Where these numbers come from: patent US10919896B2

- Target Under Test: Cdc7/Dbf4 (Homo sapiens, UniProt O00311)
- Sequence (O00311 whole entry): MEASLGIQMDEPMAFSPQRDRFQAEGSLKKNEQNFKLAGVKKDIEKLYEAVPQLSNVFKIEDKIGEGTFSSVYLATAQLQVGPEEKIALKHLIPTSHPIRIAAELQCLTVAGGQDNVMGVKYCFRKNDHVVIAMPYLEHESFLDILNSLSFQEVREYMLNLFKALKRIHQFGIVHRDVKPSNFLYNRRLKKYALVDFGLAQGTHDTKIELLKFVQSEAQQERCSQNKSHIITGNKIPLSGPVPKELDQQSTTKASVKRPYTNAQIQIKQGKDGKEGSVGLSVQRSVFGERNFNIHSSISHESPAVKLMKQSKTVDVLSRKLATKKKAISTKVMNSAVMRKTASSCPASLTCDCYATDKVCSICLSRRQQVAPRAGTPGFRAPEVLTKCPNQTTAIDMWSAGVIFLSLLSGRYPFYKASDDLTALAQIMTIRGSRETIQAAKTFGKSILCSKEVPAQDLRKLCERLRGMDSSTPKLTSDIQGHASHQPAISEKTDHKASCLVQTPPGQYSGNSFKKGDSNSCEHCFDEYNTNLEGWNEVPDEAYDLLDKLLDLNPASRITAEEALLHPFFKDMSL
- Sequence (Q9UBU7 whole entry partner): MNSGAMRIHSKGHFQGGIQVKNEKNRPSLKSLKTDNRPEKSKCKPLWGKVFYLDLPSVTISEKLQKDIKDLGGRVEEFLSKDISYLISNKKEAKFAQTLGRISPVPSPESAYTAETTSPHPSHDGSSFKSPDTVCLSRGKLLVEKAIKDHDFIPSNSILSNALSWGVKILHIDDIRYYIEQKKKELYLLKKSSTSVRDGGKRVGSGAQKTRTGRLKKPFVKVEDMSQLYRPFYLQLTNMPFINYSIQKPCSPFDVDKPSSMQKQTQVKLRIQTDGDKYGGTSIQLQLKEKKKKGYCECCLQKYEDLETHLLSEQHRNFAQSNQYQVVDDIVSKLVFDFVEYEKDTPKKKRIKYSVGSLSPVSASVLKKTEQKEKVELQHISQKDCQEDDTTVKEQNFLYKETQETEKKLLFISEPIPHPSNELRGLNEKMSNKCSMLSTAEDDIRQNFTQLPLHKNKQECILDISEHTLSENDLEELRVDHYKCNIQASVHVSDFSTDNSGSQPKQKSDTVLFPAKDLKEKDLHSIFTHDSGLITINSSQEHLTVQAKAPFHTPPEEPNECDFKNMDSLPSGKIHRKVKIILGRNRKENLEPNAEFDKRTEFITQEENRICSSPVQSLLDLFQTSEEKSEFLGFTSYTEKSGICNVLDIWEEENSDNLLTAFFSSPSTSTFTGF
- Assay Summary: Cdc7 Biochemical Assay Method 3: Cdc7/Dbf4 Enzyme TR-FRET Assay measuring pS40MCM2
- Condition Description: 1 μM ATP, read-out: Biochemical Method 3 (pIC50) (converted)
- Experimental: This protocol describes a method for assaying a compounds' ability to inhibit Cdc7 activity by measuring pS40MCM2 levels in a Cdc7/Dbf4 Enzyme TR-FRET Assay. 2.5 nM Cdc7/Dbf4 was incubated with 100 nM of biotin-labelled peptide 35-TDALTS(pS)PGRDLP in the presence of 1 μM ATP at 25° C. for 120 minutes. The phosphorylation of the peptide was detected using TR-FRET. Anti-Mcm2 (pS40) antibody, Terbium anti-rabbit secondary antibody and Streptavidin-Alexa Fluor488 form the detection system.
Let's look at some compounds and their measured IC50.
Assay Endpoint: IC50 (nM)

Compound	Assay Endpoint	Numeric Result
O=c1[nH]c(-c2ccnc(F)c2)nc(N2CCCC23CCNC3)c1Cl (stereo not drawn) [Compound 259]	IC50	2.82
O=c1[nH]c(-c2ccnc(F)c2)nc(N2CCOC(CN3CCCCC3)C2)c1Cl (stereo not drawn) [Compound 202]	IC50	10
O=c1[nH]c(-c2ccnc(F)c2)nc(NCC2COCCN2)c1Cl (stereo not drawn) [Compound 224]	IC50	724
O=c1[nH]c(-c2ccncc2)nc(N2CCN[C@@H](C(F)(F)F)C2)c1Cl [Compound 180]	IC50	1.38
O=c1[nH]c(-c2ccnc(F)c2)nc(O[C@H]2CCOC2)c1Cl [Compound 200]	IC50	8.13
O=c1[nH]c(-c2ccnc(F)c2)nc(N2CCC3(CCCN3)CC2)c1Cl [Compound 241]	IC50	2.19

---

- Target Under Test: Cdc7/ASK (Homo sapiens, UniProt O00311)
- Sequence (O00311 whole entry): as the sequence (O00311 whole entry) above
- Sequence (Q9UBU7 whole entry partner): as the sequence (Q9UBU7 whole entry partner) above
- Assay Summary: Cdc7 Biochemical Assay Method 1: 384 well ELISA, whole protein substrate MCM2, antibody against Phospho MCM2 (S53)
- Design: purchased
- Condition Description: 2 μM ATP, read-out: Biochemical Method 1 (pIC50) (converted)

Molecule	IC50
CC(C)C(=O)N1CCC(c2nc(-c3ccncc3)[nH]c(=O)c2Cl)CC1	13.2 nM
O=c1[nH]c(-c2ccncc2)nc(N2CCOC(c3ccccc3)C2)c1Cl (stereo not drawn)	66.1 nM
O=c1[nH]c(-c2ccncc2)nc(N2CC(CO)C2)c1Cl	263 nM
O=C1CN(c2nc(-c3ccncc3)[nH]c(=O)c2Cl)CCCN1	145 nM
O=c1[nH]c(-c2ccncc2)nc(N2CC[C@@H](F)C2)c1Cl	56.2 nM
O=C(Cc1c[nH]cn1)N1CCC(c2nc(-c3ccncc3)[nH]c(=O)c2Cl)CC1	5.75 nM
CN1CCN(c2nc(-c3ccncc3)[nH]c(=O)c2Cl)CC1	9.33 nM
O=c1[nH]c(-c2ccncc2)nc(N2CCN(c3cccc(F)c3)CC2)c1Cl	16.2 nM
O=c1[nH]c(-c2ccncc2)nc(C2CCOCC2)c1Cl	1.45 nM
O=c1[nH]c(-c2ccncc2)nc(N2CCCC(F)(F)C2)c1Cl	1.95 nM
CC(C)(C)OC(=O)NCC1CN(c2nc(-c3ccncc3)[nH]c(=O)c2Cl)CCO1 (stereo not drawn)	85.1 nM
CC1CC(C)CN(c2nc(-c3ccncc3)[nH]c(=O)c2Cl)C1 (stereo not drawn)	29.5 nM
O=c1[nH]c(-c2ccncc2)nc(N2CCCCCC2)c1Cl	19.1 nM
O=c1[nH]c(-c2ccncc2)nc(N2CCN[C@@H](CCO)C2)c1Cl	57.5 nM
O=c1[nH]c(-c2ccncc2)nc(N2CCC(O)C2)c1Cl (stereo not drawn)	100 nM
CC(C)[C@H]1CN(c2nc(-c3ccncc3)[nH]c(=O)c2Cl)CCN1	2 nM
O=C1CCN(c2nc(-c3ccncc3)[nH]c(=O)c2Cl)CCN1	5.25 nM
O=c1[nH]c(-c2ccncc2)nc(N2CCOCC2)c1Cl	2.29 nM
C[C@H]1CN(c2nc(-c3ccncc3)[nH]c(=O)c2Cl)CCN1	2.57 nM
NC(=O)C1CCN(c2nc(-c3ccncc3)[nH]c(=O)c2Cl)CC1	12 nM
O=c1[nH]c(-c2ccncc2)nc(N2CCN(CC(F)F)CC2)c1Cl	4.27 nM
O=c1[nH]c(-c2ccncc2)nc(N2CC3C(C2)C3(F)F)c1Cl (stereo not drawn)	19.1 nM
O=c1[nH]c(-c2ccncc2)nc(N2CCCC2)c1Cl	132 nM
O=c1[nH]c(-c2ccncc2)nc(C2CCCN2)c1Cl (stereo not drawn)	2450 nM
CC(C)(C)N1CCN(c2nc(-c3ccncc3)[nH]c(=O)c2Cl)CC1	977 nM
O=c1[nH]c(-c2ccncc2)nc(N2CCCNCC2)c1Cl	229 nM
O=C(c1ccccn1)N1CCC(c2nc(-c3ccncc3)[nH]c(=O)c2Cl)CC1	8.71 nM
COc1ccc(S(N)(=O)=O)cc1C(=O)N1CCC(c2nc(-c3ccncc3)[nH]c(=O)c2Cl)CC1	6.17 nM
O=c1[nH]c(-c2ccnc(F)c2)nc(N2CCCC(F)(F)C2)c1Cl	0.851 nM
CC(C)[C@H]1CN(c2nc(-c3ccnc(F)c3)[nH]c(=O)c2Cl)CCN1	1.1 nM
CC1CN(c2nc(-c3ccncc3)[nH]c(=O)c2Cl)CCN1C (stereo not drawn)	11.2 nM
Cc1nc(C)c(C(=O)N2CCC(c3nc(-c4ccncc4)[nH]c(=O)c3Cl)CC2)s1	0.871 nM
O=c1[nH]c(-c2ccncc2)nc(C2CCCNC2)c1Cl (stereo not drawn)	3.63 nM
O=c1[nH]c(-c2ccncc2)nc(N2CCCC(CO)C2)c1Cl (stereo not drawn)	9.33 nM
CC(N)C(=O)N1CCC(c2nc(-c3ccncc3)[nH]c(=O)c2Cl)CC1 (stereo not drawn)	9.12 nM
CC(C)CN1CCN(c2nc(-c3ccncc3)[nH]c(=O)c2Cl)CC1	31.6 nM

---

- Target Under Test: Cdc7/Dbf4 (Homo sapiens, UniProt O00311)
- Assay Summary: Cdc7 Biochemical Assay Method 3: Cdc7/Dbf4 Enzyme TR-FRET Assay measuring pS40MCM2
- Condition Description: 1 μM ATP, read-out: Biochemical Method 3 (pIC50) (converted)
Assay Endpoint: IC50 (nM)

Compound	Target Under Test	Numeric Result
CC(C)C(=O)NC1CCN(c2nc(-c3ccnc(F)c3)[nH]c(=O)c2Cl)CC1	Cdc7/Dbf4 (Homo sapiens, UniProt O00311)	2.4
O=c1[nH]c(-c2ccnc(F)c2)nc(N2CCCC23CCCNC3)c1Cl (stereo not shown)	Cdc7/Dbf4 (Homo sapiens, UniProt O00311)	1.41
O=c1[nH]c(-c2ccnc(F)c2)nc(N2CCN3CC(F)(F)C[C@H]3C2)c1Cl	Cdc7/Dbf4 (Homo sapiens, UniProt O00311)	3.63
O=c1[nH]c(-c2ccnc(F)c2)nc(N2CCC3CCNCC32)c1Cl (stereo not shown)	Cdc7/Dbf4 (Homo sapiens, UniProt O00311)	2.88

---

- Target Under Test: Cdc7/Dbf4 (Homo sapiens)
- Assay Summary: Cdc7 Biochemical Assay Method 3: Cdc7/Dbf4 Enzyme TR-FRET Assay measuring pS40MCM2
- Condition Description: 1 μM ATP, read-out: Biochemical Method 3 (pIC50) (converted)
Checkbox rule: IC50 lower than 2 nM = 1; IC50 not lower than 2 nM = -1.

Compound	Category
O=c1[nH]c(-c2ccnc(F)c2)nc(N2CCC3(CCCCN3)C2)c1Cl (stereo not drawn)	-1
CN1CCCN(c2nc(-c3ccnc(F)c3)[nH]c(=O)c2Cl)CC1	-1
N[C@H]1CCCCN(c2nc(-c3ccnc(F)c3)[nH]c(=O)c2Cl)C1	1
N[C@H]1CCCN(c2nc(-c3ccnc(F)c3)[nH]c(=O)c2Cl)C1	1
O=c1[nH]c(-c2ccnc(F)c2)nc(N2CCC3(CCCO3)CC2)c1Cl	-1
CC[C@@H]1CN(c2nc(-c3ccnc(F)c3)[nH]c(=O)c2Cl)CCO1	1
CC(C)C[C@H]1CN2CCC[C@H]2CN1c1nc(-c2ccncc2)[nH]c(=O)c1Cl	-1
CN[C@@H]1CCCN(c2nc(-c3ccnc(F)c3)[nH]c(=O)c2Cl)C1	1
CCN(c1nc(-c2ccnc(F)c2)[nH]c(=O)c1Cl)C1CCOCC1	-1

---

- Target Under Test: Cdc7/ASK (Homo sapiens, UniProt O00311)
- Assay Summary: Cdc7 Biochemical Assay Method 1: 384 well ELISA, whole protein substrate MCM2, antibody against Phospho MCM2 (S53)
- Design: purchased
- Condition Description: 2 μM ATP, read-out: Biochemical Method 1 (pIC50) (converted)
Where a name gives a salt, the structure may show the parent alone.
Let's look at some compounds and their measured IC50.

Compound	IC50 / nM
CC(C)(C)OC(=O)N1CC=C(c2nc(-c3ccncc3)[nH]c(=O)c2Cl)CC1 [Compound 405]	562
C[C@@H](NC(=O)OC(C)(C)C)C(=O)N1CCC(c2nc(-c3ccncc3)[nH]c(=O)c2Cl)CC1 [Compound 64]	3.98
O=c1[nH]c(-c2ccncc2)nc(N2CCN(c3cccnc3)CC2)c1Cl [Compound 116]	12.6
CC(C)(C)OC(=O)N1CCC(F)(c2nc(-c3ccncc3)[nH]c(=O)c2Cl)CC1 [Compound 22]	74.1
O=c1[nH]c(-c2ccncc2)nc(N2CCSCC2)c1Cl [Compound 128]	2.57
CC(C)(C)[C@H]1CN(c2nc(-c3ccnc(F)c3)[nH]c(=O)c2Cl)CCN1.Cl [Compound 160]	1.62
CC(F)(F)[C@H]1CN(c2nc(-c3ccncc3)[nH]c(=O)c2Cl)CCN1 [Compound 307]	3.63
Cc1cc(C(=O)N2CCC(c3nc(-c4ccncc4)[nH]c(=O)c3Cl)CC2)nn1C [Compound 58]	0.912
O=c1[nH]c(-c2ccnc(F)c2)nc(N2CCOCC2)c1Cl [Compound 316]	1.32
CC(=O)Nc1ccc(C(=O)N2CCC(c3nc(-c4ccncc4)[nH]c(=O)c3Cl)CC2)cc1 [Compound 62]	12
O=c1[nH]c(-c2ccncc2)nc(C2CCNCC2)c1Cl [Compound 2]	1.74
Cc1cccc(C(=O)N2CCC(c3nc(-c4ccncc4)[nH]c(=O)c3Cl)CC2)c1 [Compound 72]	6.92
C[C@H]1CN(c2nc(-c3ccncc3)[nH]c(=O)c2Cl)CCN1C [Compound 88]	14.1
CCOC1CCN(c2nc(-c3ccncc3)[nH]c(=O)c2Cl)CC1 [Compound 27]	21.4
C[C@H]1CN(c2nc(-c3ccncc3)[nH]c(=O)c2Cl)[C@@H](C)CN1 [Compound 172]	12.6
CC(C)C[C@H]1CN2CCC[C@H]2CN1c1nc(-c2ccncc2)[nH]c(=O)c1Cl [Compound 184]	437
CC(C)(C)OC(=O)N1CCN(c2nc(-c3ccncc3)[nH]c(=O)c2Cl)CC1 [Compound 32]	100
O=c1[nH]c(-c2ccncc2)nc(N2CCN[C@H](CCO)C2)c1Cl [Compound 174]	30.9
NC(=O)C1CN(c2nc(-c3ccncc3)[nH]c(=O)c2Cl)CCO1 (stereo not shown) [Compound 96]	42.7
O=c1[nH]c(-c2ccncc2)nc(C2(F)CCNCC2)c1Cl [Compound 21]	1.51
Cc1ncsc1C(=O)N1CCC(c2nc(-c3ccncc3)[nH]c(=O)c2Cl)CC1 [Compound 67]	1.55
O=c1[nH]c(-c2ccncc2)nc(C2CCCCO2)c1Cl (stereo not shown) [Compound 15]	832
C[C@H]1CN(c2nc(-c3ccncc3)[nH]c(=O)c2Cl)CCN1C(=O)C(F)(F)F [Compound 77]	2.95
O=C(c1ccnnc1)N1CCC(c2nc(-c3ccncc3)[nH]c(=O)c2Cl)CC1 [Compound 47]	1.12
CC(C)(C)OC(=O)N1CCC(c2nc(-c3ccnc(F)c3)[nH]c(=O)c2Cl)CC1 [Compound 25]	23.4
CC1CCN(c2nc(-c3ccncc3)[nH]c(=O)c2Cl)CC1 [Compound 122]	6.61
COc1cccc(N2CCN(c3nc(-c4ccncc4)[nH]c(=O)c3Cl)CC2)c1 [Compound 113]	28.8
O=c1[nH]c(-c2ccncc2)nc(N2CCNC(c3cccc(O)c3)C2)c1Cl (stereo not shown) [Compound 178]	4.27
COC(=O)[C@@H]1CN(c2nc(-c3ccncc3)[nH]c(=O)c2Cl)CCN1 [Compound 163, hydrochloride]	67.6
O=C(c1ccccc1Cl)N1CCC(c2nc(-c3ccncc3)[nH]c(=O)c2Cl)CC1 [Compound 66]	14.8
CC(F)(F)C1CN(c2nc(-c3ccncc3)[nH]c(=O)c2Cl)CCN1 (stereo not shown) [Compound 156]	3.98
O=c1[nH]c(-c2ccncc2)nc(C2CCOCC2)c1Br [Compound 3]	6.76
O=C(c1ccco1)N1CCC(c2nc(-c3ccncc3)[nH]c(=O)c2Cl)CC1 [Compound 51]	5.13
O=c1[nH]c(-c2ccncc2)nc(N2CCN[C@@H](C(F)(F)F)C2)c1Cl [Compound 180]	1.45
